Tested on: E. coli W3110RL
assayExplanation: microbe, parasite or virus in culture
Type: cell-based
experimentalConditions: E. coli with lpxC of R. leguminosarum; 22 hours at 37° C., MTT
propertyMeasured: MIC E. coli W3110RL

smilesText: CC(C)(C)OC(=O)CC[C@H](NC(=O)c1ccc(C#CC#Cc2ccc(N)cc2)cc1)C(=O)NO
assayedSystem: E. coli W3110RL
propertyMeasured: MIC E. coli W3110RL
reportedMeasurement: E (>100 μg/mL)
--
smilesText: CSCC[C@H](NC(=O)c1ccc(C#CC#Cc2ccc(N)cc2)cc1)C(=O)NO
assayedSystem: E. coli W3110RL
propertyMeasured: MIC E. coli W3110RL
reportedMeasurement: E (>100 μg/mL)
--
smilesText: C[C@@H](O)[C@H](NS(=O)(=O)c1ccc(C#CC#Cc2ccc(N)cc2)cc1)C(=O)NO
assayedSystem: E. coli W3110RL
propertyMeasured: MIC E. coli W3110RL
reportedMeasurement: E (>100 μg/mL)
